Test: yeast display, Sf9 membrane polyspecificity reagent, FACS + sequencing; frameworks hold sequencing errors
parameter: polyreactivity (PSR sort gate)

Some solved entries appear below for comparison.
[[record]]
sequence_record = "QVQLVESGGGLVQAGGSLRLSCAASRSTLCQNAMGWYRQAPGKEREFVADNSGSGDSTYYADSVKGRFTISRDHANNTVYLQLNSLTPEDTAVYYCATPSPHVGLKWEYDSWGQGTQVTVSS"
reported_measurement = "low polyreactivity"

[[record]]
sequence_record = "QVQLVDSGGGLVQAGCSLRLSCAASGSTFVTNDMGWSRKAPGKERELVAAISSGTSTNYADSVKGRFTISRDNAKNTFYLQMNSLNPEDTAVYYCAADSLKRDDYWGQGTQVTVSS"
reported_measurement = "low polyreactivity"

[[record]]
sequence_record = "QVQLVESGGGLVQAGGSLRLSCAASGRTIGTYAMGWYRQAPGTERELVAAIRSNAGSTYYADSVKGRFTISRDNGKNTVYLQMNSLKPEDTAVYYCAKSYRSSRRYNYWGQGTQVTVSS"
reported_measurement = "high polyreactivity"

[[record]]
sequence_record = "QVQLVESGGGLVQAGGSLRLSCAASGLIFDPNTMGWYRQAPGKERELVAAISSGGDTNYADSVKGRFTISRDNAKNTVYLQMNSLKPEDTAVYYCATDIRFHDPSEYEGVDFEFWGQGTQVTVSS"
reported_measurement = "low polyreactivity"


Lab note: QVQLVESGGGLVQAGGSLRLSCAASGTFRVYAMGWYRQAPGKERELVAAISRSGTSTYYSDSVKGRFTISRDNAKNTVYLQMNSLKPEDTAVYYCNDVVRGQYDWGQGTQVTVSS gave polyreactivity (PSR sort gate) of high polyreactivity

Measured polyreactivity (PSR sort gate), QVQLVESGGGLVQAGGSLRLSCAASGFTFYRYAMGWYRQAPGKERELVAVITRGGSTNYADSVKGRFTISRDNAKNTVYLQMNSLKPEDTAVYYCAARWFAGDWDYWYDYWGQGTQVTVSS : low polyreactivity

Reported polyreactivity (PSR sort gate) for QVQLVESGGGLVQAGGSLRLSCAASGYTFSWYAMGWYRQAPGKERELVAGIDTSGGSTYYADSVKGRFTISRDNAKNTVYLQMNSLKPEDTAVYYCAAGLLWYSWGFWYYEYGYWGQGTQVTVSS was low polyreactivity

# polyreactivity (PSR sort gate) of QDQLVESGGGLVQAGGSLRLSCAASGRTFYRNAMGWYRQAPGKERELVAAISGSGVRTYYADSVKGRFTISRDNAKNTVYLHMNSLKPEDTAVYYCARSVTWFRGRFSPDYGSWGQGTQVTVSS = high polyreactivity
